Each entry below carries its reported pKd.
target_under_test: PXR-LBD-SRC1p (Homo sapiens, UniProt O75469)
protocol_text: Competitive isothermal titration calorimetry
Assay type: binding
Lab note: report pKd as minus log10 of the concentration in molar units, number only.

COc1ccc(CNc2ccc(Cl)cc2[C@](O)(C#CC2CC2)C(F)(F)F)cc1 : 4.84

Ask | Given the molecule COc1ccc(CNc2ccc(Cl)cc2[C@@](O)(C#CC2CC2)C(F)(F)F)cc1 , what is its reported pKd?
Reply | 5.02

Ask | Do the same for O=C1Cc2ccc(Cl)cc2C(C#CC2CC2)(C(F)(F)F)O1 (centres unmarked) please
Reply | 4.98

Ask | Let us now turn to COc1ccc(C(=O)Nc2ccc(Cl)cc2C(O)(C#CC2CC2)C(F)(F)F)cc1 (centres unmarked)
Reply | 5.38

====

target_under_test: UniProt O75469
protocol_text: Isothermal titration calorimetry
Type: binding
Attribute: Kd
Reply with just the number (in µM).

Consider the worked cases shown below.
O=C1Oc2ccc(Cl)cc2C(C#CC2CC2)(C(F)(F)F)O1 (stereo not shown) : 10.9
O=C1Nc2c(O)cc(Cl)cc2[C@@](C#CC2CC2)(C(F)(F)F)O1 : 7.9
CCCC#CC1(C(F)(F)F)OC(=O)Nc2ccc(Cl)cc21 (stereo not shown) : 78.7

Ask | # get_value(readout='Kd', item= FC(F)(F)[C@@]1(C#CC2CC2)OCNc2ccc(Cl)cc21 )
Reply | 14.9

====

target_under_test: PXR-LBD-SRC1p (Homo sapiens)
Sequence (O75469 with tags, fused parts or gaps limits assumed): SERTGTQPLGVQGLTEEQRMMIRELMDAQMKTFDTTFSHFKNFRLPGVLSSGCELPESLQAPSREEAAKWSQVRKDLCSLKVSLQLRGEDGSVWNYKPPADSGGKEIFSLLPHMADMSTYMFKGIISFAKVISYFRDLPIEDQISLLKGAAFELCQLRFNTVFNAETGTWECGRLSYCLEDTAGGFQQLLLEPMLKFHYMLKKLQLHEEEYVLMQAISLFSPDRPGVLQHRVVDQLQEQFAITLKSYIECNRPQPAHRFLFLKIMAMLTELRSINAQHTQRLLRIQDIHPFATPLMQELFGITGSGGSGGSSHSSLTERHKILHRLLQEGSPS
protocol_text: Competitive isothermal titration calorimetry
Assay type: binding
condition_details: from KD of competitive ITC
measurement_name: ΔG° (kcal/mol)
Output spec: scalar in kcal/mol, unitless text.

Ask | Quick check: ΔG° of O=C1Cc2ccc(Cl)cc2C(C#CC2CC2)(C(F)(F)F)O1 (stereo not shown) ?
Reply | -6.8

Ask | Now the same for COc1ccc(CNc2ccc(Cl)cc2[C@](O)(C#CC2CC2)C(F)(F)F)cc1
Reply | -6.6

Ask | What do you have for COc1ccc(CNc2ccc(Cl)cc2[C@@](O)(C#CC2CC2)C(F)(F)F)cc1 ?
Reply | -6.8

Ask | # repeat for COc1ccc(C(=O)Nc2ccc(Cl)cc2C(O)(C#CC2CC2)C(F)(F)F)cc1 (stereo not shown)
Reply | -7.3
